Assignment: determine reported interaction score for the given binders.
# assay_system: T1, O6-bA
# T1 chain: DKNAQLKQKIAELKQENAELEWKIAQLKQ
# experiment: two-hybrid library CCNG1;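 further: natural log of median RNA to DNA barcode read ratio; higher means stronger binding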
Numbers only.

DKNAQLKQKIAELKQKNAELKWEIAQLEQ [O13-bA]    1.39
DEIAQLEQKNAELKQEIAELKWKIAQLKQ [4H462-bA]    1.7

Below are 3 binders. Give each one its interaction score.
1. DENAQLEQKNAELKQKIAELKWKIAQLKQ [O2-bA]
2. DKNAQLKQENAELEQEIAELEWEIAQLEQ [O1-bA]
3. DEIAQLEQENAELEQKIAELKWENAQLEQ [O15-bA]

Response given:
1: -0.5; 2: -0.599; 3: -0.551

This collection of values is drawn from paper PMC10397247.
